- Test system: PC-3 PIP/flu tumor-bearing mice
- method_description: Biodistribution studies in PC-3 PIP/flu tumor-bearing mice
- condition_context: 4 h p.i.
Give PC-3 flu Tumor for every item shown.
Numbers only; they are read as % IA/g.

Input O=C(O)CCC(NC(=O)NC(CCCCNC(=O)C(Cc1ccc2ccccc2c1)NC(=O)C1CCC(CNC(=O)C(CCCCNC(=O)CN2CCN(CC(=O)O)CCN(CC(=O)O)CCN(CC(=O)O)CC2)NC(=O)CC(NC(=O)CC(NC(=O)CCCc2ccc(I)cc2)C(=O)O)C(=O)O)CC1)C(=O)O)C(=O)O (stereo not drawn) [^177Lu-PSMA-ALB-05, metal not drawn] . Output PC-3 flu Tumor: 2.10

Input Cc1ccc(CCCC(=O)NCCCCC(NC(=O)CN2CCN(CC(=O)O)CCN(CC(=O)O)CCN(CC(=O)O)CC2)C(=O)NCC2CCC(C(=O)NC(Cc3ccc4ccccc4c3)C(=O)NCCCCC(NC(=O)NC(CCC(=O)O)C(=O)O)C(=O)O)CC2)cc1 (stereo not drawn) [44Sc-PSMA-ALB-06, metal not drawn] . Output PC-3 flu Tumor: 4.37

Input O=C(O)CCC(NC(=O)NC(CCCCNC(=O)C(Cc1ccc2ccccc2c1)NC(=O)C1CCC(n2cc(CC(NC(=O)CN3CCN(CC(=O)O)CCN(CC(=O)O)CCN(CC(=O)O)CC3)C(=O)NC(CCCCNC(=O)CCCc3ccc(I)cc3)C(=O)O)nn2)CC1)C(=O)O)C(=O)O (stereo not drawn) [^177Lu-PSMA-ALB-01, metal not drawn] . Output PC-3 flu Tumor: 5.03

Input O=C(O)CCC(NC(=O)NC(CCCCNC(=O)C(Cc1ccc2ccccc2c1)NC(=O)C1CCC(CNC(=O)C(CCCCNC(=O)CCCc2ccc(I)cc2)NC(=O)CN2CCN(CC(=O)O)CCN(CC(=O)O)CCN(CC(=O)O)CC2)CC1)C(=O)O)C(=O)O (stereo not drawn) [^177Lu-PSMA-ALB-03, metal not drawn] . Output PC-3 flu Tumor: 5.32

Input O=C(O)CCC(NC(=O)NC(CCCCNC(=O)C(Cc1ccc2ccccc2c1)NC(=O)C1CCC(CNC(=O)C(CCCCNC(=O)CN2CCN(CC(=O)O)CCN(CC(=O)O)CCN(CC(=O)O)CC2)NC(=O)CC(NC(=O)CC(NC(=O)CC(NC(=O)CCCc2ccc(I)cc2)C(=O)O)C(=O)O)C(=O)O)CC1)C(=O)O)C(=O)O (stereo not drawn) [^177Lu-PSMA-ALB-07, metal not drawn] . Output PC-3 flu Tumor: 1.80

Input Cc1ccc(CCCC(=O)NC(CC(=O)NC(CC(=O)NC(CC(=O)NC(CCCCNC(=O)CN2CCN(CC(=O)O)CCN(CC(=O)O)CCN(CC(=O)O)CC2)C(=O)NCC2CCC(C(=O)NC(Cc3ccc4ccccc4c3)C(=O)NCCCCC(NC(=O)NC(CCC(=O)O)C(=O)O)C(=O)O)CC2)C(=O)O)C(=O)O)C(=O)O)cc1 (stereo not drawn) [^177Lu-PSMA-ALB-08, metal not drawn] . Output PC-3 flu Tumor: 0.25

###

- System: PC-3 PIP/flu tumor-bearing mice
- method_description: Biodistribution studies in PC-3 PIP/flu tumor-bearing mice
- condition_context: 4 h p.i.
measured_attribute: Salivary glands (% IA/g)
Numbers only; they are read as % IA/g.

Input O=C(O)CCC(NC(=O)NC(CCCCNC(=O)C(Cc1ccc2ccccc2c1)NC(=O)C1CCC(CNC(=O)C(CCCCNC(=O)CCCc2ccc(I)cc2)NC(=O)CN2CCN(CC(=O)O)CCN(CC(=O)O)CCN(CC(=O)O)CC2)CC1)C(=O)O)C(=O)O (stereo not drawn) [^177Lu-PSMA-ALB-03, metal not drawn] . Output Salivary glands: 5.02

Input Cc1ccc(CCCC(=O)NCCCCC(NC(=O)CN2CCN(CC(=O)O)CCN(CC(=O)O)CCN(CC(=O)O)CC2)C(=O)NCC2CCC(C(=O)NC(Cc3ccc4ccccc4c3)C(=O)NCCCCC(NC(=O)NC(CCC(=O)O)C(=O)O)C(=O)O)CC2)cc1 (stereo not drawn) [44Sc-PSMA-ALB-06, metal not drawn] . Output Salivary glands: 4.55

Input Cc1ccc(CCCC(=O)NC(CC(=O)NC(CC(=O)NC(CC(=O)NC(CCCCNC(=O)CN2CCN(CC(=O)O)CCN(CC(=O)O)CCN(CC(=O)O)CC2)C(=O)NCC2CCC(C(=O)NC(Cc3ccc4ccccc4c3)C(=O)NCCCCC(NC(=O)NC(CCC(=O)O)C(=O)O)C(=O)O)CC2)C(=O)O)C(=O)O)C(=O)O)cc1 (stereo not drawn) [^177Lu-PSMA-ALB-08, metal not drawn] . Output Salivary glands: 0.19

###

Give Lung for every item shown.
- Tested on: PC-3 PIP/flu tumor-bearing mice
- method_description: Biodistribution studies in PC-3 PIP/flu tumor-bearing mice
- condition_context: 24 h p.i.
Numbers only; they are read as % IA/g.

Input O=C(O)CCC(NC(=O)NC(CCCCNC(=O)C(Cc1ccc2ccccc2c1)NC(=O)C1CCC(CNC(=O)C(CCCCNC(=O)CN2CCN(CC(=O)O)CCN(CC(=O)O)CCN(CC(=O)O)CC2)NC(=O)CCCCCCC(=O)NC(CCCCNC(=O)CCCc2ccc(I)cc2)C(=O)O)CC1)C(=O)O)C(=O)O (stereo not shown) [^177Lu-PSMA-ALB-04, metal not drawn] . Output Lung: 40.1

Input O=C(O)CCC(NC(=O)NC(CCCCNC(=O)C(Cc1ccc2ccccc2c1)NC(=O)C1CCC(n2cc(CC(NC(=O)CN3CCN(CC(=O)O)CCN(CC(=O)O)CCN(CC(=O)O)CC3)C(=O)NC(CCCCNC(=O)CCCc3ccc(I)cc3)C(=O)O)nn2)CC1)C(=O)O)C(=O)O (stereo not shown) [^177Lu-PSMA-ALB-01, metal not drawn] . Output Lung: 8.62

Input Cc1ccc(CCCC(=O)NCCCCC(NC(=O)CN2CCN(CC(=O)O)CCN(CC(=O)O)CCN(CC(=O)O)CC2)C(=O)NCC2CCC(C(=O)NC(Cc3ccc4ccccc4c3)C(=O)NCCCCC(NC(=O)NC(CCC(=O)O)C(=O)O)C(=O)O)CC2)cc1 (stereo not shown) [^177Lu-PSMA-ALB-06, metal not drawn] . Output Lung: 2.48

Input Cc1ccc(CCCC(=O)NC(CC(=O)NC(CC(=O)NC(CC(=O)NC(CCCCNC(=O)CN2CCN(CC(=O)O)CCN(CC(=O)O)CCN(CC(=O)O)CC2)C(=O)NCC2CCC(C(=O)NC(Cc3ccc4ccccc4c3)C(=O)NCCCCC(NC(=O)NC(CCC(=O)O)C(=O)O)C(=O)O)CC2)C(=O)O)C(=O)O)C(=O)O)cc1 (stereo not shown) [^177Lu-PSMA-ALB-08, metal not drawn] . Output Lung: 0.09

###

Give Bone for every item shown.
- Tested on: PC-3 PIP/flu tumor-bearing mice
- method_description: Biodistribution studies in PC-3 PIP/flu tumor-bearing mice
- condition_context: 96 h p.i.
Numbers only; they are read as % IA/g.

Input O=C(O)CCC(NC(=O)NC(CCCCNC(=O)C(Cc1ccc2ccccc2c1)NC(=O)C1CCC(CNC(=O)C(CCCCNC(=O)CN2CCN(CC(=O)O)CCN(CC(=O)O)CCN(CC(=O)O)CC2)NC(=O)CC(NC(=O)CC(NC(=O)CCCc2ccc(I)cc2)C(=O)O)C(=O)O)CC1)C(=O)O)C(=O)O (stereo not shown) [^177Lu-PSMA-ALB-05, metal not drawn] . Output Bone: 0.28

Input O=C(O)CCC(NC(=O)NC(CCCCNC(=O)C(Cc1ccc2ccccc2c1)NC(=O)C1CCC(n2cc(CC(NC(=O)CN3CCN(CC(=O)O)CCN(CC(=O)O)CCN(CC(=O)O)CC3)C(=O)NC(CCCCNC(=O)CCCc3ccc(I)cc3)C(=O)O)nn2)CC1)C(=O)O)C(=O)O (stereo not shown) [^177Lu-PSMA-ALB-01, metal not drawn] . Output Bone: 1.07

Input O=C(O)CCC(NC(=O)NC(CCCCNC(=O)C(Cc1ccc2ccccc2c1)NC(=O)C1CCC(CNC(=O)C(CCCCNC(=O)CN2CCN(CC(=O)O)CCN(CC(=O)O)CCN(CC(=O)O)CC2)NC(=O)CCCCCCC(=O)NC(CCCCNC(=O)CCCc2ccc(I)cc2)C(=O)O)CC1)C(=O)O)C(=O)O (stereo not shown) [^177Lu-PSMA-ALB-04, metal not drawn] . Output Bone: 2.54

Input O=C(O)CCC(NC(=O)NC(CCCCNC(=O)C(Cc1ccc2ccccc2c1)NC(=O)C1CCC(CNC(=O)C(CCCCNC(=O)CCCc2ccc(I)cc2)NC(=O)CN2CCN(CC(=O)O)CCN(CC(=O)O)CCN(CC(=O)O)CC2)CC1)C(=O)O)C(=O)O (stereo not shown) [^177Lu-PSMA-ALB-03, metal not drawn] . Output Bone: 1.07

###

- System: PC-3 PIP/flu tumor-bearing mice
- method_description: Biodistribution studies in PC-3 PIP/flu tumor-bearing mice
- condition_context: 24 h p.i.
measured_attribute: Blood (% IA/g)
Numbers only; they are read as % IA/g.

Input O=C(O)CCC(NC(=O)NC(CCCCNC(=O)C(Cc1ccc2ccccc2c1)NC(=O)C1CCC(CNC(=O)C(CCCCNC(=O)CCCc2ccc(I)cc2)NC(=O)CN2CCN(CC(=O)O)CCN(CC(=O)O)CCN(CC(=O)O)CC2)CC1)C(=O)O)C(=O)O (stereo not drawn) [^177Lu-PSMA-ALB-03, metal not drawn] . Output Blood: 17.3

Input Cc1ccc(CCCC(=O)NCCCCC(NC(=O)CN2CCN(CC(=O)O)CCN(CC(=O)O)CCN(CC(=O)O)CC2)C(=O)NCC2CCC(C(=O)NC(Cc3ccc4ccccc4c3)C(=O)NCCCCC(NC(=O)NC(CCC(=O)O)C(=O)O)C(=O)O)CC2)cc1 (stereo not drawn) [^177Lu-PSMA-ALB-06, metal not drawn] . Output Blood: 1.49

Input O=C(O)CCC(NC(=O)NC(CCCCNC(=O)C(Cc1ccc2ccccc2c1)NC(=O)C1CCC(CNC(=O)C(CCCCNC(=O)CN2CCN(CC(=O)O)CCN(CC(=O)O)CCN(CC(=O)O)CC2)NC(=O)CC(NC(=O)CC(NC(=O)CC(NC(=O)CCCc2ccc(I)cc2)C(=O)O)C(=O)O)C(=O)O)CC1)C(=O)O)C(=O)O (stereo not drawn) [^177Lu-PSMA-ALB-07, metal not drawn] . Output Blood: 0.79

Input O=C(O)CCC(NC(=O)NC(CCCCNC(=O)C(Cc1ccc2ccccc2c1)NC(=O)C1CCC(CNC(=O)C(CCCCNC(=O)CN2CCN(CC(=O)O)CCN(CC(=O)O)CCN(CC(=O)O)CC2)NC(=O)CC(NC(=O)CC(NC(=O)CCCc2ccc(I)cc2)C(=O)O)C(=O)O)CC1)C(=O)O)C(=O)O (stereo not drawn) [^177Lu-PSMA-ALB-05, metal not drawn] . Output Blood: 1.67

Input O=C(O)CCC(NC(=O)NC(CCCCNC(=O)C(Cc1ccc2ccccc2c1)NC(=O)C1CCC(CNC(=O)C(CCCCNC(=O)CN2CCN(CC(=O)O)CCN(CC(=O)O)CCN(CC(=O)O)CC2)NC(=O)CCCCCCC(=O)NC(CCCCNC(=O)CCCc2ccc(I)cc2)C(=O)O)CC1)C(=O)O)C(=O)O (stereo not drawn) [^177Lu-PSMA-ALB-04, metal not drawn] . Output Blood: 55.3
